Data origin: patent US8735423B2

# Method Notes: Rodent Pharmacokinetic Study
# Experimental Parameters: Wistar, in vivo, iv; Wister rat male, I.V, 5 mg/kg
Overview of recorded Cmax for various compounds
Response body: numeric value in ng/mL, unit text excluded.

Some compounds with recorded Cmax:
1. Cl.Cl.Clc1cncc(OCC2CC3CC3N2)c1 (stereo not shown) [Example 7] = 2340
2. Cl.c1cncc(OCC2CC3CC3N2)c1 (stereo not shown) [Example 1] = 3180
3. Cl.Cl.Clc1ncccc1OCC1CC2CC2N1 (stereo not shown) [Example 4] = 2600

Exam item: Determine its reported Cmax: Cl.Cl.Clc1ccc(OCC2CC3CC3N2)cn1 (stereo not shown) [Example 5]
Marked response: 2720
